tested on: Roseburia intestinalis; assay: growth AUC relative to DMSO control (median of replicates) (fraction); higher = more growth (less inhibition), active = hit call of the paper; settings: 20 µM; 24 h
Decide using growth AUC: a value greater than or equal to 1 is met, a smaller one is not met.

• Cc1nn(C)c(F)c1C(=O)Nc1ccccc1C(C)CC(C)C (centres undefined) = not met
• N#Cc1ccc(CC(=NNC(=O)Nc2ccc(OC(F)(F)F)cc2)c2cccc(C(F)(F)F)c2)cc1 (mixture of isomers) = not met
• CCc1cccc(C)c1NC(C)C(=O)O (racemic) = met
• CCCCCCCC/C=C\CCCCCCCC(N)=O = not met
• CCCCCCCC/C=C\CCCCCCCCCCCCC = met
• C=CCOC(Cn1ccnc1)c1ccc(Cl)cc1Cl (centres undefined) = not met
• NC(=O)Cc1cccc2ccccc12 = met
• ClC=C(c1ccc(Cl)cc1)c1ccc(Cl)cc1 = not met
• Oc1ccc2nc(-c3cscn3)[nH]c2c1 = met
• COc1cc(OC)c(Cl)cc1N = met
• CCOC(=O)C1=NN(c2ccc(Cl)cc2Cl)C(C)(C(=O)OCC)C1 (centres undefined) = not met
• FC(F)(F)c1cccc(C(c2ccccc2)(c2ccccc2)n2cncn2)c1 = not met
• Oc1ccccc1O = met
• CS(=O)(=O)c1ccc(C(=O)O)c(N)c1 = met
• NC(=O)C1CO1 (centres undefined) = not met
• COC(=O)C(C)Oc1ccc(Oc2ccc(C(F)(F)F)cn2)cc1 (centres undefined) = not met
• Cc1ccc(C(C)NC(=O)[C@@H](NC(=O)OC(C)C)C(C)C)cc1 (some centres undefined) = not met

###

tested on: Eubacterium rectale; assay: growth AUC relative to DMSO control (median of replicates) (fraction); higher = more growth (less inhibition), active = hit call of the paper; conditions: 20 µM; 24 h
Readout type: growth AUC

• COc1nc(NC(=O)NS(=O)(=O)c2ccccc2C(F)(F)F)nc(C(F)(F)F)n1 = 0.979
• CCc1nc2ncnn2c(N)c1CCCC(=O)O.Cl = 1.07
• Cc1nn(C)c(F)c1C(=O)Nc1ccccc1C(C)CC(C)C (configuration not stated) = 0.932
• CCc1cccc(C)c1N(C(=O)C(=O)O)[C@@H](C)C(=O)O = 1.12
• COC1CCC2(CC1)NC(=O)C(c1cc(C)ccc1C)C2O (configuration not stated) = 1.11
• CCc1cccc(C)c1N(C(=O)C(=O)O)C(C)COC (configuration not stated) = 0.979
• C=CCc1ccc(O)c(OC)c1 = 1.01
• CCOc1ccc2c(c1)C(C)=CC(C)(C)N2 = 1.06
• CCC/C(=N\OCC)C1=C(O)CC(C2CCCSC2)CC1=O (configuration not stated) = 1.14
• CC1COc2ccccc2N1C(=O)C(Cl)Cl (configuration not stated) = 0.989
• CCCCCCCCCCCC[N+](C)(C)Cc1ccc(CC)cc1.[Cl-] = 0.863
• c1ccc2c(c1)Cc1ccccc1-2 = 1
• Cc1cccc(C)c1N(C(=O)CCl)C1CCOC1=O (configuration not stated) = 1.09
• CCCCCCCCc1c(CC)nc2ncnn2c1N = 0.988
• COC(=O)Nc1ccc(Cl)c(Cl)c1 = 0.973
• CCSC(=O)N(CC)CC = 1
• NC(=O)C1CO1 (configuration not stated) = 0.989
• C[S+](C)CCC(=O)O.[Cl-] = 0.923
• CCOC(=O)c1cnn(C)c1S(=O)(=O)NC(=O)Nc1nc(OC)cc(OC)n1 = 1.08
• CCOC(=O)C1=NOC(c2ccccc2)(c2ccccc2)C1 = 0.932
• O.O.O=[N+]([O-])c1ccc([O-])cc1.[Na+] = 0.918
• CCCC(C)(C)C(=O)Nc1ccc(Cl)cc1 = 0.958

###

Let's look at some molecules and their measured growth AUC.
test system: Bacteroides clarus; assay: growth AUC relative to DMSO control (median of replicates) (fraction); higher = more growth (less inhibition), active = hit call of the paper; conditions: 20 µM; 24 h
Readout type: growth AUC

* Cc1cc(N(C)C)nc(Cl)n1 | 1.02
* S=C([S-])NCCNC(=S)[S-].[Mn+2] | 1.13
* C#CCOc1cc(-n2nc(C(C)(C)C)oc2=O)c(Cl)cc1Cl | 0.986
* CCCCOC(=O)COc1ccc(Cl)cc1Cl | 1.02
* Cc1[nH]oc(=O)c1N=Nc1ccccc1Cl | 0.95
* CCSC(=O)N(CC(C)C)CC(C)C | 1
* O=C(O)[C@@H](S)[C@@H](S)C(=O)O | 1.05
* CCCCOCCOC(=O)COc1nc(Cl)c(Cl)cc1Cl | 0.956
* CCc1cc(C(=O)O)cc(CC)c1C1C(=O)N2CCOCCN2C1=O | 1.03
* CCCOC(=O)c1ccc(O)cc1 | 0.986
* O=S(=O)(Oc1ccc(Cl)cc1)c1ccccc1 | 0.967
* CCCN(CCC)C(=O)SCC | 0.97
* ClC(COCC(Cl)C(Cl)(Cl)Cl)C(Cl)(Cl)Cl (centres undefined) | 0.942
* COC(=O)c1ccccc1S(=O)(=O)NC(=O)Nc1nc(OC(F)F)cc(OC(F)F)n1 | 0.971

###

system: Eubacterium rectale; test: growth AUC relative to DMSO control (median of replicates) (fraction); higher = more growth (less inhibition), active = hit call of the paper; conditions: 20 µM; 24 h
Readout type: growth AUC

• O=[N+]([O-])c1ccc(Oc2c(Cl)cc(Cl)cc2Cl)cc1 = 1.02
• COc1cc(OC)nc(Sc2cccc3c2C(=O)OC3C)n1 (configuration not stated) = 1.02
• Cc1cc(C)cc(O)c1 = 0.95
• Cc1c(C(=O)c2c[nH]n(C)c2=O)ccc(S(C)(=O)=O)c1C1=NOCC1 = 0.99
• CON(C(=O)c1cc(C)oc1C)C1CCCCC1 = 1
• O=[N+]([O-])c1ccc(O)cc1 = 0.994
• ClC=C(c1ccc(Cl)cc1)c1ccc(Cl)cc1 = 0.977
• CSc1nnc(C(C)(C)C)c(=O)n1/N=C/C(C)C = 1.1
• CCOC(=O)[C@@H](C)Oc1ccc(Oc2cnc3cc(Cl)ccc3n2)cc1 = 1.01
• N#CC(=NOCC1OCCO1)c1ccccc1 = 1.06
• CC(C)c1nn(C(=O)NC(C)(C)C)c(=O)n1N = 0.971
• Clc1ccc(C(c2ccccc2Cl)C(Cl)Cl)cc1 (configuration not stated) = 0.952
• CC(C)(NC(=O)C(Br)C(C)(C)C)c1ccccc1 (configuration not stated) = 0.889
• c1ccc2c(c1)ccc1ccccc12 = 1.01
• O=[N+]([O-])c1ccc2c(c1)Cc1ccccc1-2 = 1.07
• CC(C)c1ccccc1 = 0.968
• c1ccc(Sc2ccccc2)cc1 = 1.02

###

system: Bacteroides uniformis; assay: growth AUC relative to DMSO control (median of replicates) (fraction); higher = more growth (less inhibition), active = hit call of the paper; details: 20 µM; 24 h
Let's look at some compounds and their measured growth AUC.
Readout type: growth AUC

• CCCCOC(=O)COc1ccc(Cl)cc1Cl = 1.02 (inactive)
• CC(C)N(C(=O)C(=O)O)c1ccc(F)cc1 = 0.993 (inactive)
• Nc1ccc(S(=O)(=O)Nc2cnc3ccccc3n2)cc1 = 0.984 (inactive)
• Cc1[nH]oc(=O)c1N=Nc1ccccc1Cl = 1.02 (inactive)
• CCc1cccc(C)c1NC(C)C(=O)O (racemic) = 0.996 (inactive)
• CCc1ccc(C(c2ccc(CC)cc2)C(Cl)Cl)cc1 = 1.02 (inactive)
• COc1cc(Cl)ccc1Oc1ccc(Cl)cc1Cl = 0.98 (inactive)
• c1ccc2c(c1)ccc1ccccc12 = 1 (inactive)
• Cc1cc(N(C)C)nc(Cl)n1 = 0.98 (inactive)
• CSC(=O)c1cccc2nnsc12 = 1 (inactive)
• CCc1cccc(C)c1N(C(=O)C(=O)O)[C@@H](C)C(=O)O = 0.999 (inactive)
• C=O = 0.988 (inactive)
• COc1cc(OC)nc(NC(=O)NS(=O)(=O)c2c(Cl)nc3ccccn23)n1 = 1.02 (inactive)
• NC(=O)c1c(Cl)cccc1Cl = 0.978 (inactive)
• O=C(Oc1ccccc1)n1c(C(F)(F)F)nc2cc(Cl)c(Cl)cc21 = 0.0127 (active)
• CCN(Cc1c(F)cccc1Cl)c1c([N+](=O)[O-])cc(C(F)(F)F)cc1[N+](=O)[O-] = 1.03 (inactive)
• CCOC(=O)c1nc(C(Cl)(Cl)Cl)n(-c2ccc(Cl)cc2Cl)n1 = 0.968 (inactive)
• Oc1c(Cl)cc(Cl)c(Cl)c1Cc1c(O)c(Cl)cc(Cl)c1Cl = 0.0126 (active)
• CSc1nc(NC2CC2)nc(NC(C)(C)C)n1 = 1 (inactive)
• CCCCCCCCSCCO = 1 (inactive)
• O=C1NCCN1 = 0.978 (inactive)
• CCOC(N)=O = 1.01 (inactive)
